# EXPERIMENTAL SYSTEM: anti-CD28 Fab (SEQ ID NOs: 202, 203)
# Sequence (VH, as listed by the source, chain 1 of 2): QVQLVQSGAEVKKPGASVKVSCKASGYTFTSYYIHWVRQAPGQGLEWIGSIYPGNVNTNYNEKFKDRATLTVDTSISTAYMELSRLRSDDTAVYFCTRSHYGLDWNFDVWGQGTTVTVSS
# Sequence (VL, as listed by the source, chain 2 of 2): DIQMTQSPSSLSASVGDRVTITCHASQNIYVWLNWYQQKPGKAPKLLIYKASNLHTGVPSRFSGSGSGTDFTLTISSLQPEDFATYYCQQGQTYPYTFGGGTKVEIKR
# TEST PROTOCOL: phage ELISA, Fab on plate;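 further: ELISA of crude clonal phage supernatants on the plate, wells preloaded with CD28 antigen or only blocking buffer, captured phage read out via HRP-linked anti-M13 antibody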
VALUE KIND: Anti-CD28 Fab signal
The reply should be a number, written without any unit.

Ask | Give the reported Anti-CD28 Fab signal for this binder. QCAAGAMWTWPVCF [Phage-1103]
Reply | 1.5

Ask | Please supply the value of reported Anti-CD28 Fab signal for the item PCSDGVAYPWPYCV [Phage-1191]
Reply | 1.2

Ask | Hello, please tell me recorded Anti-CD28 Fab signal for this one: PCAAGAMWPWPVCL [Phage-1136]
Reply | 1.41

Ask | Kindly indicate its recorded Anti-CD28 Fab signal. Item: TCAAGAHYSWPFCM [Phage-1128]
Reply | 1.42

Ask | Quote Anti-CD28 Fab signal reported for TCAAGAAYTWPVCF [Phage-1162] please.
Reply | 1.32

Ask | Read off the recorded Anti-CD28 Fab signal for TCAAGATWLWPWCL [Phage-1182]
Reply | 1.23

Ask | Return value of Anti-CD28 Fab signal for input TCAAGATYNWPWCF [Phage-1207] , no commentary.
Reply | 1.07

Ask | Return reported Anti-CD28 Fab signal. Input binder: PCSAGVTYAWLYCV [Phage-1140]
Reply | 1.41

Ask | Tell me measured Anti-CD28 Fab signal for TCAAGASWNWPACE [Phage-1138] please.
Reply | 1.41

Ask | Provide one value: measured Anti-CD28 Fab signal of TCAAGASYPWPLCV [Phage-1142]
Reply | 1.4

Ask | Tell us which Anti-CD28 Fab signal value is on record for TCAAGAHYEWPQCF [Phage-1206]
Reply | 1.08

Ask | Consider the binder TCAAGAHYLWPHCL [Phage-1104] . State its measured Anti-CD28 Fab signal.
Reply | 1.5

Ask | Identify Anti-CD28 Fab signal associated with the binder SCSAGALWKWPVCF [Phage-1116]
Reply | 1.45

Ask | Look up and report measured Anti-CD28 Fab signal for this entry: RCSFRFITLAEACV [Phage-1130]
Reply | 1.41

Ask | Find the measured Anti-CD28 Fab signal of TCAAGATWTWPTCM [Phage-1208] and report it.
Reply | 1.07

Ask | Consider the binder SCAAGAHWSWPVCF [Phage-1192] and give its recorded Anti-CD28 Fab signal.
Reply | 1.2

The reported measurements were obtained from patent US20260274955A1.
